Cited source: the RNAGym collection of RNA variant scans (doi:10.1126/science.aae0568)

B1: tRNA (parent)
chain: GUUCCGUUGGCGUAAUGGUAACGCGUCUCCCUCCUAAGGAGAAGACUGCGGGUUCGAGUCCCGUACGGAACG

Variants of: B1
assay.protocol: yeast fitness relative to wild type (ratio to wild type); higher = fitter; tRNA-Arg(CCU), competitive growth, 37 C, YPD
Variants at the floor of the assay were thinned out.
metric: yeast fitness

- sequence.text: "GUUCGGUUGGCGUAAUGGUAACGCGUCUCCCUCCUAAGGAGAAGACUGCGGGUUCGAGACCCGUACGGAACG [C5G U59A]"
  metric: "yeast fitness"
  meas.value: 0.896
- sequence.text: "GUUCGGUUGGCGUAAUGGUCACGCGUCUCCCUUCUAAGGAGAAGACUGCGGGUUCGAGUCCGGUACGGAACG [C5G A20C C33U C62G]"
  metric: "yeast fitness"
  meas.value: "≤ 0.5"
- sequence.text: "GUUCCGUUGGGGUAAUGGUAGCGCGUCUCCCUCCUAAGGAGAAGACUGCGGGUUCGGGUCCCGUACGGAACG [C11G A21G A57G]"
  metric: "yeast fitness"
  meas.value: "≤ 0.5"
- sequence.text: "GUUCCGUUGGCGUAAUGGUAACGCGUCUCCCACCUAAGGAGAAGACUGCGGGUUCGAGUCCCCUACGGAACG [U32A G63C]"
  metric: "yeast fitness"
  meas.value: 0.626
- sequence.text: "GUUCCGUUAGCGUAAUGGUAACGCGUCUCGGUCCUAAGGAGAGGACUGCGGGUUCGAGUCCCGUGCGGAACG [G9A C30G C31G A43G A65G]"
  metric: "yeast fitness"
  meas.value: "≤ 0.5"
- sequence.text: "GUUCCGUUGGCGUAAUGGUAGCGCGUCUCCCUCCUAAGGAGAAGACUGCGGGUUCGACCCCCGUACGGAACG [A21G G58C U59C]"
  metric: "yeast fitness"
  meas.value: 0.961
- sequence.text: "GUUCCGUUGGCGUAAUGGUAACGCGUCUCCCUCCUAAGGAGAGGACUGCGAGUUCGAGUCCCGUACGGCACG [A43G G51A A69C]"
  metric: "yeast fitness"
  meas.value: "≤ 0.5"
- sequence.text: "GGUCCGUUGGCGUAAUGGUAACGCGUCUUCCUCCUAAGGAGAAGACUGCGGGUCCGGGCCCCGUACGGAACG [U2G C29U U54C A57G U59C]"
  metric: "yeast fitness"
  meas.value: "≤ 0.5"
- sequence.text: "GUUCCGCUGGCGUAAUGGUAACGCGUCUCCCUCCUAAGGAGAAGACUGGGGGUUCGAGUCCCAUACGGAACG [U7C C49G G63A]"
  metric: "yeast fitness"
  meas.value: 0.748
- sequence.text: "GUUACGUUGGCGUAAUGGUAACGCGUCUCCCUCAUAAGGAGAAGACUGCGGGUUCGAGUCCGGUACGGAACG [C4A C34A C62G]"
  metric: "yeast fitness"
  meas.value: "≤ 0.5"
- sequence.text: "GUUCAGUUGCCGUAAUGGUAACGGGUCUCCCUCCUAAGGAGAAGACUGCGGGUUCGAGUCCCGUACGGAACG [C5A G10C C24G]"
  metric: "yeast fitness"
  meas.value: "≤ 0.5"
- sequence.text: "GUUCCGUUGGCGUAAUGGUAACGCGUCUCCCUCCUUAGGAGAAGACUGCGGGUUCGAGUCCCGUCCGGAACG [A36U A65C]"
  metric: "yeast fitness"
  meas.value: 0.596
- sequence.text: "GUUCCGUUGGCGUAAUGGUAACGCGUCUCCGUCCUAAGGAGAAGACUGCGGGUUCGUGUCCCGUACGGCACG [C31G A57U A69C]"
  metric: "yeast fitness"
  meas.value: "≤ 0.5"
- sequence.text: "GUUCCGUUGGCGUAAUGGUAACGCGUCUCCCUCCUACGGGGAAGACCGCGGGUUCGAGUCCCGUACGGAACG [A37C A40G U47C]"
  metric: "yeast fitness"
  meas.value: "≤ 0.5"
- sequence.text: "GUUCCGUUGGCGUAAUGGUAACGCGUCUCCCGCCAGAGGAGAAGACUGCGGGUUCGAGUCCCGUAUGGAACG [U32G U35A A36G C66U]"
  metric: "yeast fitness"
  meas.value: "≤ 0.5"
- sequence.text: "GUUCCGUUGGCGUAAUGGUAACGCGUCUCCCUCCUAAGGAGAAGACUGCCGGUUCGAGUCCGGUACGGAUCG [G50C C62G A70U]"
  metric: "yeast fitness"
  meas.value: 0.606
- sequence.text: "GUUCAGUUGGCGUAAUGGUAACGCGUCUCCCUCCUAAGGAGAAGACUGCGGGUUCGAGUUCCGUACGGAGCG [C5A C60U A70G]"
  metric: "yeast fitness"
  meas.value: "≤ 0.5"
- sequence.text: "GUUCCGAUGGCGUAAUGGUAACGCGUCUCCCUCCUAAGGAGGAGACUGCGGGUUGGCGUCCCGUACGGAACG [U7A A42G C55G A57C]"
  metric: "yeast fitness"
  meas.value: "≤ 0.5"
- sequence.text: "GUUCCGUUGGCGUAACGGUAAAGCGUCUCCCUCCUAAGGAGAAGACUGCGGGCUCGAGUCCCGUACGGAACG [U16C C22A U53C]"
  metric: "yeast fitness"
  meas.value: 0.629
- sequence.text: "GUUCCGUUGGCGUAAUGGUAACGCGUGUCCCUCCUAAGGCGAAGACUGCGGGUUCGAGUUCCGUACGGAACG [C27G A40C C60U]"
  metric: "yeast fitness"
  meas.value: "≤ 0.5"
- sequence.text: "GUUCCGUUAGCGUAAUGGUAACGCGUCUCCCUCCUAAGGAGAAGGCUGCCGGUUCGAGUCCCGUACGGCACG [G9A A45G G50C A69C]"
  metric: "yeast fitness"
  meas.value: "≤ 0.5"
- sequence.text: "GUUCCCUUGGCGCAAUGGUAACGGGUCUCCCUCUUAAGGAGAAGACUGCGGGCUGGAGUCCAGUACGGAACG [G6C U13C C24G C34U U53C C55G C62A]"
  metric: "yeast fitness"
  meas.value: "≤ 0.5"
- sequence.text: "GUUCCGUUGGCGUAAUGGUAACGCGUCUCCCUCCUAAGGUGAAGGCUGCGGGUUCGAGUCCCGUACGGAACG [A40U A45G]"
  metric: "yeast fitness"
  meas.value: 0.816
- sequence.text: "GUUCCGUUGGCGUAAUCGUAACGCGUCUCCCUCCUAAGGGGCAGUCUGCGGGUCCGAGUCCCGUACGGAACG [G17C A40G A42C A45U U54C]"
  metric: "yeast fitness"
  meas.value: "≤ 0.5"
- sequence.text: "GUUCCGUUGGAGUAAUGGUAACGCGUCUUCCUCCUAAGGAGACGACUGCGGGUUCGAGUCCCGUUCGGAACG [C11A C29U A43C A65U]"
  metric: "yeast fitness"
  meas.value: "≤ 0.5"
- sequence.text: "GUUCCGUUAGCGUAAUGGUAACGCGUCUCCAUCCUAAGGAGAAGACCGCGGGUUCGAGUCCCGUACAGAACG [G9A C31A U47C G67A]"
  metric: "yeast fitness"
  meas.value: "≤ 0.5"
- sequence.text: "GUUCAGUUGGCGUAAUGGUAACGCGUCUCCCCCCUGAGGAGAAGACUGCGGGUUCGAGUCCCGUACGGAACG [C5A U32C A36G]"
  metric: "yeast fitness"
  meas.value: 0.53
- sequence.text: "GUUCAGUUGGCGUAAUGGUAACGCGUCUCCCUCCUAAGGGGAAGACUGCGGGUUCGAGUCCCGUAUGGAACG [C5A A40G C66U]"
  metric: "yeast fitness"
  meas.value: 0.549
- sequence.text: "GUACAGUUGGCGUAAUGGUAACGCGUCUCCCUCCUAAGGAGAAGCCUGCCGGUUCGAGUCUCGUACGAAACG [U3A C5A A45C G50C C61U G68A]"
  metric: "yeast fitness"
  meas.value: "≤ 0.5"
- sequence.text: "GUUCCGUUAGCGUAAUGGUAACGCGUCUCCCUCCUAAGGAGAAGACUGCGCGUUCGAGUCCCGUACGGAACG [G9A G51C]"
  metric: "yeast fitness"
  meas.value: 0.539
- sequence.text: "GUUCCGUUGGCGUAAUGGUAACGCGUCUCCCUCCUAAGGAGAAGUAUGCGUGUUCGAGUCCCGUACGGAACG [A45U C46A G51U]"
  metric: "yeast fitness"
  meas.value: "≤ 0.5"
- sequence.text: "GUUCCGUUGGCGUAAUGGUAACGCGUCUCCCUCCUAAGGUGAAGACUGAGGGUUCGGGUCCUGUACGGAACG [A40U C49A A57G C62U]"
  metric: "yeast fitness"
  meas.value: "≤ 0.5"
- sequence.text: "GUCGCGUUGGCGUAAUGGUAACCCGUCUCCCUCCUAAGGAGAAGACUGCGGGUUCGAGUCCCGUACGGAACG [U3C C4G G23C]"
  metric: "yeast fitness"
  meas.value: "≤ 0.5"
- sequence.text: "GUUACGUUGGCGUAAUAGUAACGCGUCUCCCUCCUAAGGAGAAGACUGCGCGUUCGAGUCCCGUACGGAACG [C4A G17A G51C]"
  metric: "yeast fitness"
  meas.value: "≤ 0.5"
- sequence.text: "GUUCCGUAGGCGUAAUGGUAAGGCGUCUCCCUCCUAAGGAGAAGACUGCGGGUUCGAGUCCCGUACGGAACG [U8A C22G]"
  metric: "yeast fitness"
  meas.value: 0.7
- sequence.text: "GUUCCGUUGGCGUAAUGGUAACGCGUGUCCCUCCUCAGGAGAAAACUGCGGGUUCGAGUCCCGUACGGAACG [C27G A36C G44A]"
  metric: "yeast fitness"
  meas.value: "≤ 0.5"
- sequence.text: "GUACCGUUGGCGUGAUGGUAACGCGUCUCCCUCCUAAGGAGAAGACUGCGGGUUCGAGUCCCGUACGGAACG [U3A A14G]"
  metric: "yeast fitness"
  meas.value: 0.934
- sequence.text: "GUUCCGUUGGCGUCAUGGUAACGCGUCUCCCUCAUAAGGAGAAGACUGCGGGUUCGAGUCUCGAACGGGACG [A14C C34A C61U U64A A69G]"
  metric: "yeast fitness"
  meas.value: "≤ 0.5"
- sequence.text: "GUUCCGUUGGCGUAAUGGUAACGGGUCUCCCUCCUUCGGAGAAGACUGCGGGUUCGAGUCCCGUCCGGAACG [C24G A36U A37C A65C]"
  metric: "yeast fitness"
  meas.value: "≤ 0.5"
- sequence.text: "GUUCCGUUGGCGUAAUGGUAACGCGUCUACCUCUUAAGGAGAAGACUCCGGGUUCGUGUCCCGUACGGAACG [C29A C34U G48C A57U]"
  metric: "yeast fitness"
  meas.value: "≤ 0.5"
- sequence.text: "GUUCAGUUGGCGUAAUGGUCACGCGUCUUCCUCAUAAGGAGAAGAAUGCAGGUUCGUGUCCCGUAUGGAACG [C5A A20C C29U C34A C46A G50A A57U C66U]"
  metric: "yeast fitness"
  meas.value: "≤ 0.5"
- sequence.text: "GUUCCGUUAGCGUAAUGGUAACGCGUCUCCCUCCUAAGGAGAAGACUGCGGAUUCGAGUCCCGUACGGAACG [G9A G52A]"
  metric: "yeast fitness"
  meas.value: 0.687
- sequence.text: "GUUCCGUUGCCGUAAUGGUAAAGGGUCUCCCUCCUAAGGAGAAGACUGCCGGUUCGAGUCCCGUCCGGAACG [G10C C22A C24G G50C A65C]"
  metric: "yeast fitness"
  meas.value: "≤ 0.5"
- sequence.text: "GUUCCGUUGGGGUAAUGGUAACGCGUCUCCCUACUAAGGAGCAGACUGCGGGUUCGAGUCCCGUACGGAACG [C11G C33A A42C]"
  metric: "yeast fitness"
  meas.value: 0.7
- sequence.text: "GUUCCGUUGGCGUAAUGAUAACGCAUCUCCCUCCUAAGGAGAAGAUUGCGGGUUAGAGUCCCGUACGGAACG [G18A G25A C46U C55A]"
  metric: "yeast fitness"
  meas.value: "≤ 0.5"
- sequence.text: "GUUCCGAGGGCGUAAUGGUAACGCGUCUCCCUCCUAAGGAGAAGACUGCGGGUUCGAGUCCCGUACGGCACG [U7A U8G A69C]"
  metric: "yeast fitness"
  meas.value: "≤ 0.5"
